Sourced from patent US10351759B2

assay: oil/water partition coefficient (K-value), static batch experiments, field oil phases North field 1 and North field 2; format: physicochemical; conditions: oil phase North field 1; ionic strength in aqueous phase 0.776; pH 6.2; 50° C.
Examples of compounds with documented oil/water partition coefficient, K-value follow.
reported-metric: oil/water partition coefficient, K-value

>>> assay_value("CCCCOC(=O)c1ccc(CO)cc1F")
18.7
>>> assay_value("COC(=O)c1ccc(CO)cc1F")
0.6
>>> assay_value("CCOC(=O)c1ccc(CO)cc1F")
1.6
>>> assay_value("CCCOC(=O)c1ccc(CO)cc1F")
5.9
>>> assay_value("O=C(O)c1ccc(CO)cc1F [2-fluoro-4-(hydroxymethyl) benzoic acid, 2-Fluoro-4-(hydroxymethyl)benzoic acid]")
0.0

----------
assay: oil/water partition coefficient (K-value), static batch experiments, field oil phases North field 1 and North field 2; format: physicochemical; settings: oil phase North field 2; ionic strength in aqueous phase 0.776; pH 6.2; 50° C.
reported-metric: oil/water partition coefficient, K-value

>>> assay_value("COC(=O)c1ccc(CO)cc1F")
0.8
>>> assay_value("O=C(O)c1ccc(CO)cc1F [2-fluoro-4-(hydroxymethyl) benzoic acid, 2-Fluoro-4-(hydroxymethyl)benzoic acid]")
0.0
>>> assay_value("CCOC(=O)c1ccc(CO)cc1F")
2.5
>>> assay_value("CCCCOC(=O)c1ccc(CO)cc1F")
23.6
>>> assay_value("CCCOC(=O)c1ccc(CO)cc1F")
7.5

----------
experiment: oil/water partition coefficient (K-value), static batch experiments, model oil; type: physicochemical; settings: pH (aqueous phase) 6.2; ionic strength in aqueous phase 0.776; model oil (isooctane 60%/toluene 30%/1-octanol 10%); 50° C.
Each entry below carries its recorded oil/water partition coefficient, K-value.
reported-metric: oil/water partition coefficient, K-value

>>> assay_value("CCCCOC(=O)c1ccc(CO)cc1F")
127.5
>>> assay_value("COC(=O)c1ccc(CO)cc1F")
3.2
>>> assay_value("CCOC(=O)c1ccc(CO)cc1F")
10.9
>>> assay_value("CCCOC(=O)c1ccc(CO)cc1F")
41.7

----------
experiment: oil/water partition coefficient (K-value), static batch experiments, model oil; assay type: physicochemical; settings: pH (aqueous phase) 7.0; ionic strength in aqueous phase 0.776; model oil (isooctane 60%/toluene 30%/1-octanol 10%); 50° C.
reported-metric: oil/water partition coefficient, K-value

>>> assay_value("CCCOC(=O)c1ccc(CO)cc1F")
44.2
>>> assay_value("CCOC(=O)c1ccc(CO)cc1F")
11.2
>>> assay_value("CCCCOC(=O)c1ccc(CO)cc1F")
126.1
>>> assay_value("COC(=O)c1ccc(CO)cc1F")
3.4
